Values from patent US6262036A

# Test system: complementary RNA targets
# protocol.text: Tm of Rp-enriched versus racemic methylphosphonate oligomers with RNA (Example 33)
# Assay type: binding
# measurement.conditions: 2.4 μM total strand concentration, pH 7.2, 100 mM sodium chloride
[mp] = methylphosphonate linkage
Quick rule: Tm of at least 40 °C means Satisfied, below that means Not satisfied.

- 2288-1: 5'-CT-CT-CT-CT-CT-CT-CT-A-3', racemic all-MP (CTCTCTCTCTCTCTA; all [mp], sugars by position and methylation of C not given here) [Oligomer 2288-1]: Not satisfied
- 1634-1: 5'-TAG-CTT-CCT-TAG-CTC-CTG-3', racemic methylphosphonate (TAGCTTCCTTAGCTCCTG; all [mp], sugars by position and methylation of C not given here) [Oligomer 1634-1]: Not satisfied
- 2624-1: 3'-CTGTTG TACGT ACCTTCTG-5' Racemic MP (CTGTTGTACGTACCTTCTG; racemic methylphosphonate, chemistry not fully specified; listed 3' to 5') [Oligomer 2624-1]: Not satisfied
- 2571-1: 5'-(G*T)(C*T)(T*C)(C*A)(T*G)(C*A)(T*G)(T*T)(G*T)-C-3', 75% MP(Rp) [Oligomer 2571-1]: Satisfied
- 2253-1: 5'-AGA-GAG-AGA-GAG-AG-T-3', racemic methylphosphonate (AGAGAGAGAGAGAGT; all [mp], sugars by position not given here) [Oligomer 2253-1]: Satisfied

====

# Test system: complementary synthetic RNA target
# protocol.text: Binding affinities of chimeric backbone oligomers to RNA (Example 35)
# Design: unit not given here
# measurement.conditions: 37° C., two-state model fit
readout.name: KA (37° C.)

* 2567-1: 5'-GTCTTCCA(TGCAT)GTTGTCC-3' [MP][DE][MP] [Oligomer 2567-1] | 2.9 × 10^7
* 2687-1: 5'-GTCTTCCA(TGCAT)GTTGTCC-3' [75% MP(Rp)][DE][75% MP(Rp)] [Oligomer 2687-1] | 2.6 × 10^9
* 3256-1: 5'-GTCTTCCA(TGCAT)GTTGTCC-3' [MP(Rp)/DE][PS][MP(Rp)/DE] [Oligomer 3256-1] | 5.5 × 10^13

====

# Tested on: complementary synthetic RNA target
# protocol.text: Binding affinities of chimeric backbone oligomers to RNA (Example 35)
# measurement.conditions: 1:1 molar ratio, 2.4 micromolar total strand, pH 7.2, 100 mM NaCl
readout.name: Tm

• 3256-1: 5'-GTCTTCCA(TGCAT)GTTGTCC-3' [MP(Rp)/DE][PS][MP(Rp)/DE] [Oligomer 3256-1] = 60.1 °C
• 3214-1: 5'-GTCTTCCA(TGCAT)GTTGTCC-3' [MP(Rp)/DE][PS/DE][MP(Rp)/DE] [Oligomer 3214-1] = 61.0 °C
• 3257-1: 5'-GTCTTC(CATGCAT)GTTGTCC-3' [MP(Rp)/DE][PS/DE][MP(Rp)/DE] [Oligomer 3257-1] = 60.9 °C
• 2687-1: 5'-GTCTTCCA(TGCAT)GTTGTCC-3' [75% MP(Rp)][DE][75% MP(Rp)] [Oligomer 2687-1] = 52.8 °C
• 3169-1: 5'-GTCTTCCA(TGCAT)GTTGTCC-3' [MP(Rp)/DE][DE][MP(Rp)/DE] [Oligomer 3169-1] = 62.6 °C
• 2567-1: 5'-GTCTTCCA(TGCAT)GTTGTCC-3' [MP][DE][MP] [Oligomer 2567-1] = 45.6 °C
• 2681-1: 5'-GTCTTCCA(TGCAT)GTTGTCC-3' [MP][PS/DE][MP] [Oligomer 2681-1] = 44.1 °C
